# protocol text: solvent given as SMILES
# test parameters: in CCOC(C)=O
# emission maximum per entry
Quick reminder: number only, in nm, skip the unit.

{"columns": ["test smiles", "emission maximum, nm"],
 "data": [
  ["O=c1oc2ccccc2cc1-c1cc2ccccc2o1", 433],
  ["COc1nc(Nc2ccc3c4c(cccc24)C(=O)c2ccccc2-3)nc(OC)n1", 523.01],
  ["CC1=C(C(C)(C)C)C(C)=[N+]2C1=C(C)c1c(C)c(C(C)(C)C)c(C)n1[B-]2(F)F", 562.4],
  ["COc1ccc2n1[B-](F)(F)[N+]1=C(c3ccccc3)C=CC1=C2c1ccc(C)cc1", 552],
  ["c1ccc(-c2nc(-c3ccc(-c4ccc(N(c5ccccc5)c5ccccc5)cc4)cn3)oc2-c2ccccc2)cc1", 456],
  ["N#CSC1=CC2=C(c3ccccc3)c3ccc(N4CCOCC4)n3[B-](F)(F)[N+]2=C1N1CCOCC1", 604]
]}

QUERY: Identify measured emission maximum associated with CCn1c2sccc2c2c3nsnc3c3c4ccsc4n(CC)c3c21
RESULT: 521

QUERY: Identify measured emission maximum associated with COc1cc(/C=C/c2ccccc2)cc(OC)c1
RESULT: 382

QUERY: Identify measured emission maximum associated with COc1ccc(/C=C2\OC(=O)c3cc(N)ccc32)cc1
RESULT: 445.04

QUERY: Identify measured emission maximum associated with COc1cccc(-n2c(-c3ccccc3)nc(C)c2C)c1
RESULT: 370

----------
# protocol text: solvent given as SMILES
# test parameters: in ClCCl
# emission maximum per entry
A complete answer gives the number and then names the unit.

// below: answered compounds
{"columns": ["test smiles", "observed"],
 "data": [
  ["CCCCC1(CCCC)c2cc(C#Cc3ccc4ccc5cccc6ccc3c4c56)ccc2-c2ccc(C#Cc3ccc4ccc5cccc6ccc3c4c56)cc21", "439 nm"],
  ["COc1ccc(C#Cc2nc3ccccc3nc2-c2csc(OC)c2)cc1", "508 nm"],
  ["C(=C/c1ccc(N(c2ccccc2)c2ccccc2)cc1)/c1ccc(N(c2ccccc2)c2ccccc2)cc1", "441 nm"],
  ["COc1ccc2ccccc2c1C1=CC(c2ccccc2)=C(c2ccccc2)C1", "471 nm"]
]}

QUERY: Identify measured emission maximum associated with COc1ccc2c(c1)cc(C)c1c3ccccc3[nH]c21
RESULT: 363 nm

QUERY: Identify measured emission maximum associated with c1ccc2c(-c3cncnc3)c3ccccc3c(-c3cncnc3)c2c1
RESULT: 417 nm

QUERY: Identify measured emission maximum associated with CCCCCCc1ccc(-n2c3[n+](c4c5ccccc5c5ccccc5c42)[B-](C)(C)c2cc(N(c4ccccc4)c4ccccc4)ccc2-3)cc1
RESULT: 437 nm

QUERY: Identify measured emission maximum associated with COCCOCCOCCOCC(COCCOCCOCCOC)Oc1cc(/C=C/c2ccc(/C=C(\C#N)c3ccccc3)cc2)c(OC(COCCOCCOCCOC)COCCOCCOCCOC)cc1/C=C/c1ccc(/C=C(\C#N)c2ccccc2)cc1
RESULT: 539 nm

----------
# emission maximum per entry
# protocol text: solvent given as SMILES
# test parameters: in c1ccncc1
Quick reminder: number only, in nm, skip the unit.

// below: answered compounds
{"columns": ["test smiles", "quantity name", "observed"],
 "data": [
  ["O=CC1=C(c2ccc(-c3cccs3)s2)CCC1", "emission maximum", 494],
  ["CN(C)c1ccc(/C=C/c2cc[n+](CCCCCCCCCCCC[n+]3ccc(/C=C/c4ccc(N(C)C)cc4)cc3)cc2)cc1", "emission maximum", 598]
]}

Moving on to the next compound.
QUERY: Identify measured emission maximum associated with [C-]#[N+]c1ccc(-c2ccc(N(C)C)cc2)cc1
RESULT: 422
